# Tested on: HOP-92
# assayName: NCI tumour cell line growth inhibition, 48 h
The source made the active and inactive calls. No stated cut-off is given here; in the data, active = GI50 up to about 1.1 µM and inactive = higher.
Each entry below lists one item and its recorded GI50 value.
propertyMeasured: GI50

compound | measurement
COc1cc(Oc2nc3ccc(C(F)(F)F)cc3nc2-c2ccccc2)cc(OC)c1OC | 14.5 µM (inactive)
COC(=O)C12CCC(C)(C)CC1C1=CCC3C4(C)CC(O)C(O)C(C)(C(=O)OC)C4CCC3(C)C1(CO)CC2 (stereo unspecified) | 14.2 µM (inactive)
COC(=O)/C(=N\NC(N)=S)C(C#N)c1ccccc1 (stereo unspecified) | > 100 µM (inactive)
[O-][n+]1c(-c2ccccc2)oc2ccccc21 | > 100 µM (inactive)
CC1=Nn2c(nnc2-c2ccc(Cl)cc2)NC(C)(C)C1 | > 100 µM (inactive)
CCOC(=O)C(=O)CC(=O)C(Br)C(Br)c1ccc(Cl)cc1 (stereo unspecified) | 24.6 µM (inactive)
CC1(C)C/C=C\CCC(O)C(O)CCC(C)(C)C1=O (stereo unspecified) | > 100 µM (inactive)
CON(C)C(=O)C(C)N(Cc1ccccc1)Cc1ccccc1 (stereo unspecified) | > 100 µM (inactive)
Nn1c(S)nnc1C12CC3CC(CC(C3)C1)C2 | > 100 µM (inactive)
Cc1ccc(CC(Cc2ccccc2C)C(=O)O)c(C(=O)O)c1 (stereo unspecified) | > 100 µM (inactive)
COc1ccc(N2C(=O)CC(c3c[nH]c4ccccc34)C2=O)cc1 (stereo unspecified) | > 100 µM (inactive)

###

# Tested on: DU-145
# assayName: NCI tumour cell line growth inhibition, 48 h
Activity calls are given as the source filed them. Cut-off read from the data, not from the text of the source: active = GI50 up to about 1.1 µM and inactive = higher.
Outcome codes: active, inactive

compound | qualitativeLabel
Cc1ccc(CC(Cc2ccccc2C)C(=O)O)c(C(=O)O)c1 (stereo not given) | inactive
CC(C)(C)c1ccc(-c2nnc(-c3cc(C#N)cc(-c4nnc(-c5ccc(C(C)(C)C)cc5)o4)c3)o2)cc1 | inactive
O=Cc1cn(CCCCCCCCCCCCn2cc(C=O)c3ccccc32)c2ccccc12 | inactive
CN1C(=O)C2(Cc3cn(C45CC67SSC(CO)(C(=O)N6C4Nc4ccccc45)N(C)C7=O)c4ccccc34)SSC1(CO)C(=O)N2C (stereo not given) | active
O=C1C[C@@H](Sc2ccccc2)C2(OCCO2)[C@H]2ON3CCC[C@@H]3[C@@H]12 | inactive
CN(C)c1nncc2[nH]cnc12 | inactive
OCC1OC(Oc2cc(O)cc(/C=C\c3ccc(O)cc3)c2)C(O)C(O)C1O (stereo not given) | inactive
CCOC(=O)C1(Cc2c[nH]c3ccccc23)C(O)CCCN1C(C)=O (stereo not given) | inactive
CC(O)c1cc2c(s1)C(=O)c1ccsc1C2=O (stereo not given) | active
COc1cc2c(cc1OCCCN1C(=O)c3cccc4cccc(c34)C1=O)N=C[C@@H]1CCCN1C2=O | inactive
Cc1ccc(OCC2=NN3C(=O)/C(=C\c4ccc([N+](=O)[O-])o4)SC3N2)cc1 (stereo not given) | inactive
Cc1cc(C2(O)C=C(C(C)(C)C)C(=O)C(C(C)(C)C)=C2)c(C)cc1C1(O)C=C(C(C)(C)C)C(=O)C(C(C)(C)C)=C1 | inactive
Cn1c(=S)[nH]c(N)c(Cc2ccccc2)c1=O | inactive
COc1ccc(-c2coc3cc(OC)cc(O)c3c2=O)cc1 [4',7-DIMETHOXY-5-HYDROXYGENISTEIN] | inactive
CCOC(=O)c1csc(NC(=O)CN2CCN(c3ccccc3)CC2)n1 | inactive
C#Cc1cccc(N2C(=O)CCC2=O)c1 | inactive
O=C1N[C@@H](c2c[nH]c3cc(Br)ccc23)C(=O)N[C@H]1c1c[nH]c2cc(Br)ccc12 | inactive
CCCCNc1nc(SC)nc2[nH]cnc12 | inactive
CCCC[C@H]1C(=O)O[C@H](C)[C@H](NC(=O)c2cccc(NC=O)c2O)C(=O)O[C@@H](C)[C@@H]1OC(=O)CC(C)C [ANTIMYCIN A3] | inactive
O=C(Sc1c(-c2ccccc2)c(=O)n(-c2ccccc2)c(=S)n1-c1ccccc1)c1cccs1 | inactive

###

# Tested on: 786-0
# assayName: NCI tumour cell line growth inhibition, 48 h
The source made the active and inactive calls. Rule as the data show it: active = GI50 up to about 1.1 µM and inactive = higher.

compound | GI50
O=C(O)C(/C=C/c1ccccc1)c1ccccc1 (stereo not given) | > 100 µM (inactive)
Cc1nc(Cl)c2sc(=S)n(-c3ccc(F)cc3)c2n1 | 2.45 µM (inactive)
CC(C)=CC(=O)CC(=O)C(=O)Nc1ccc(Cl)c(Cl)c1 | > 100 µM (inactive)
COc1cc(C[P+](c2ccccc2)(c2ccccc2)c2ccccc2)cc(OC)c1OC | > 100 µM (inactive)
Cc1cc(NS(=O)(=O)c2ccc(NC(=O)c3ccc4nc5ccccc5c(Nc5ccc(S(=O)(=O)Nc6cc(C)on6)cc5)c4c3)cc2)no1 | > 50 µM (inactive)
O=C1C2CC=CCC2C(=O)C12CCc1ccccc12 (stereo not given) | > 100 µM (inactive)
CCC1c2[nH]c3ccccc3c2C[C@H]2C(=O)NC(C)C(=O)N12 (stereo not given in full) | > 100 µM (inactive)
Cc1cc(C2(O)C=C(C(C)(C)C)C(=O)C(C(C)(C)C)=C2)c(C)cc1C1(O)C=C(C(C)(C)C)C(=O)C(C(C)(C)C)=C1 | > 100 µM (inactive)
O=C(O)c1ccccc1/C=N\N=C1NCCCCN1 | > 100 µM (inactive)
O=C(NNC(=O)c1cc2ccccc2[nH]1)c1cc2ccccc2[nH]1 | > 100 µM (inactive)

###

# Test system: NCI-H460
# assayName: NCI tumour cell line growth inhibition, 48 h
Calls of active or inactive are those of the source. Cut-off read from the data, not from the text of the source: active = GI50 up to about 1.1 µM and inactive = higher. Where a SMILES comes first, the peptide text is derived from it. [ ]: non-standard residue; d: D form. The star is where a group is joined. ξ: configuration not given here. Propanoyl(3-(4-MeO-Ph)) = COc1ccc(CCC(=O)*)cc1; Thr(3ξ) = CC(O)[C@H](N)C(=O)O; dNMeL = CN[C@H](CC(C)C)C(=O)O; OBn = c1ccc(CO*)cc1; ξLac = CC(O)C(=O)O
Each entry below lists one item and its recorded GI50 value.
propertyMeasured: GI50

compound | propertyMeasured | measurement
CC(O)c1cc2c(s1)C(=O)c1c(C(C)O)csc1C2=O (stereo unspecified) | GI50 | 0.0451 µM (active)
Cn1ncc2c(Nc3ccc(Cl)cc3)c3ccccc3nc21 | GI50 | 18.7 µM (inactive)
Oc1cc(-c2ccc(F)cc2)nc2ncc(Cl)cc12 | GI50 | 15.4 µM (inactive)
O=C(/C=C/c1cccc2ccccc12)c1ccccc1 | GI50 | 16.1 µM (inactive)
CCOC(=O)/C(=C\c1ccc(N(CCC#N)CCC#N)cc1C)NC(=O)/C=C/c1ccccc1 | GI50 | > 100 µM (inactive)
O=C(O)/C=C/C(=O)N1C/C(=C\c2ccccc2)C(=O)/C(=C/c2ccccc2)C1 | GI50 | 14.1 µM (inactive)
O=[N+]([O-])c1sc2ccc(Cl)cc2c1Nc1ccc(Cl)cc1 | GI50 | > 100 µM (inactive)
Fc1ccc(Oc2nc3ccccc3nc2-c2ccccc2)cc1 | GI50 | > 100 µM (inactive)
COC(=O)C1(Cc2ccccc2)Cc2ccccc2C1 | GI50 | 25.5 µM (inactive)
COc1ccc(CCC(=O)OC(C)[C@H](NC(=O)[C@@H](CC(C)C)N(C)C(=O)[C@@H]2CCCN2C(=O)C(C)O)C(=O)OCc2ccccc2)cc1 (stereo partly specified) (H-[ξLac]P[dNMeL][Thr(3ξ)](Propanoyl(3-(4-MeO-Ph)))-OBn) | GI50 | 64.4 µM (inactive)
O=C(Sc1c(-c2ccccc2)c(=O)n(-c2ccccc2)c(=S)n1-c1ccccc1)c1cccs1 | GI50 | > 100 µM (inactive)
COC(=O)C1=NN2c3ccccc3C(=O)OCCC2(C)C1 (stereo unspecified) | GI50 | 68.2 µM (inactive)
COC(=O)[C@@H](NC(=O)c1ccc(CNC(=O)/C(C)=C/c2ccccc2)cc1)C(C)C | GI50 | 65 µM (inactive)
Nc1ccc(Nc2c3ccccc3nc3ccccc23)cc1 | GI50 | 0.565 µM (active)
COC(=O)/C(C#N)=C1\NC(=O)c2ccccc21 | GI50 | > 100 µM (inactive)
C=C1C(=O)OC2/C=C(\CO)C3OC3C3OC3(C)CC(OC(=O)/C(=C/C)CO)C12 (stereo unspecified) | GI50 | > 100 µM (inactive)
COc1cccc(C(=O)N2CCc3ccccc32)c1OC | GI50 | 81.8 µM (inactive)
CC(C)=CC(=O)CC(=O)C(=O)Nc1ccc(Cl)c(Cl)c1 | GI50 | > 100 µM (inactive)
O=C(Nc1ccccc1)N1CCN(C(=O)Nc2ccccc2)C1=S | GI50 | 65 µM (inactive)
O=C(O)c1ccccc1/C=N\N=C1NCCCCN1 | GI50 | > 100 µM (inactive)
N=C(N)NS(=O)(=O)c1ccc(Nc2c3ccccc3nc3c(C(=O)NC(CO)(CO)CO)cccc23)cc1 | GI50 | 2.88 µM (inactive)
Cc1cc(C)c(-c2noc(-c3ccc(Cl)cc3)c2C2=NCCCN2)c(C)c1 | GI50 | 11.7 µM (inactive)
CCc1ccc(/C=C/C(=O)C2CN(CC)CCC2(O)/C=C/c2ccc(CC)cc2)cc1 (stereo unspecified) | GI50 | 2.22 µM (inactive)
CCOC(=O)C(Cc1ccc(N(CCCl)CCCl)cc1)NC(=O)CCCN1C(=O)CN=C(c2ccccc2)c2cc(Cl)ccc21 (stereo unspecified) | GI50 | 5.35 µM (inactive)
CN(C)c1ccc(/C=C(/C(=O)O)c2csc(-c3nc(/C(=C\c4ccc(N(C)C)cc4)C(=O)O)cs3)n2)cc1 | GI50 | > 100 µM (inactive)
CC(C)[Si](OC/C(=C/COC(C)(C)C)[C@H]1CC=C(C(=O)c2ccccc2N2CN(C)C(=O)N(C)C2)C1)(C(C)C)C(C)C | GI50 | 12.6 µM (inactive)
CN(CC(=O)O)S(=O)(=O)c1ccc2ccccc2c1 | GI50 | > 100 µM (inactive)
CC(C)(C)CC(C)(C)c1ccc(O)c(C[N+](C)(C)[O-])c1 | GI50 | > 100 µM (inactive)
Cc1ccccc1NC(=O)C(=O)CC(=O)C1CCOC1=O (stereo unspecified) | GI50 | > 100 µM (inactive)
COc1ccc(-c2coc3cc(OC)cc(O)c3c2=O)cc1 [4',7-DIMETHOXY-5-HYDROXYGENISTEIN] | GI50 | > 100 µM (inactive)
O=C1C[C@@H](Sc2ccccc2)C2(OCCO2)[C@H]2ON3CCC[C@@H]3[C@@H]12 | GI50 | 4.36 µM (inactive)
CC(O)CNC(=O)C(C)Oc1ccc(OCC2CCCCC2)cc1 (stereo unspecified) | GI50 | > 100 µM (inactive)
Nc1nc(SCCC/C=C/I)nc2c1ncn2C1OC(COP(=O)(O)O)C(O)C1O (stereo unspecified) | GI50 | > 100 µM (inactive)
Cc1ccc2c(c1)SSSSS2 | GI50 | 18.4 µM (inactive)
O=C1N[C@@H](c2c[nH]c3cc(Br)ccc23)C(=O)N[C@H]1c1c[nH]c2cc(Br)ccc12 | GI50 | > 100 µM (inactive)
Cc1ccc(/N=C2\N=C(N3CC(C)OC(C)C3)c3ccccc32)cc1 (stereo unspecified) | GI50 | 27.2 µM (inactive)
COc1ccc2ccc3c(c2c1)CN1CCc2cc(OC)c(OC)cc2C1C3 (stereo unspecified) | GI50 | > 100 µM (inactive)
ClC1=NSSC1(Cl)Cl | GI50 | 36.9 µM (inactive)
O=Cc1cn(CCCCCCCCCCCCn2cc(C=O)c3ccccc32)c2ccccc12 | GI50 | > 10 µM (inactive)
CC1=C(C(=O)CC(=O)C(=O)Nc2ccc(Cl)cc2C)Sc2ccccc2N1 | GI50 | > 100 µM (inactive)
COC(=O)c1nc(NN)cc(O)c1CCCCCc1c(O)nc(NN)nc1C(=O)OC | GI50 | > 100 µM (inactive)

Data origin: ChEMBL document CHEMBL1201862
